Values were extracted from patent US20150274820A1.

Listed below: kon values for each entry.
Target: recombinant rat VEGF164 (rat) (UniProt P16612)
Experiment: Biacore SPR, VEGF immobilized, pH 5
Provide only the numeric value, understood in M⁻¹ s⁻¹.

# annotated cases, reported kon shown
binder	numericValue
511-max (scFv, also called ESBA802) scFv: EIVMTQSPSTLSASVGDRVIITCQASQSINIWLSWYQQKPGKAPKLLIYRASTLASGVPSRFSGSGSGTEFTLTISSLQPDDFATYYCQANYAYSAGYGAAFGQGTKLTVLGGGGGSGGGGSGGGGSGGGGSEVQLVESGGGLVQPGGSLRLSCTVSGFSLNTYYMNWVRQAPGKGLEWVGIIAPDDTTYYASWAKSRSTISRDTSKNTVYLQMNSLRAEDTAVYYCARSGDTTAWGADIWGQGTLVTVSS	626000
509-max (scFv, VL and VH tied by name; also called Protein Nr; 855) scFv: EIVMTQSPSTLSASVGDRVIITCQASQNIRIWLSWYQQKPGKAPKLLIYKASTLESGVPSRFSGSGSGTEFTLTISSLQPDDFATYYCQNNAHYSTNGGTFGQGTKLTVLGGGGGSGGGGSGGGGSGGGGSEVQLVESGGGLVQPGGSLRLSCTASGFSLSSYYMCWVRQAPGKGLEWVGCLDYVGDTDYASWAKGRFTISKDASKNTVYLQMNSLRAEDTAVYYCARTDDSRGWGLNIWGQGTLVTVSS	3.9e+06

Incoming: What value of kon has been recorded for this entry: 578minmax (scFv, also called ESBA903; 903) scFv: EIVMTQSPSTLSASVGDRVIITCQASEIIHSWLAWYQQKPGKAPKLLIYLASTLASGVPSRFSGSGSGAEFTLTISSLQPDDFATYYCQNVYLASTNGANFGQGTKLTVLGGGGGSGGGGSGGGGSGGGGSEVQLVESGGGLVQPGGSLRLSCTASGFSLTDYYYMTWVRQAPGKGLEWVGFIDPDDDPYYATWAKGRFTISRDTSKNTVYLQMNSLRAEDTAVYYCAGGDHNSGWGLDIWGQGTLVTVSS
Outgoing: 858000
